These measurements were taken from ChEMBL document CHEMBL1144781.

# tested on: Caspase-2 (Homo sapiens, UniProt P42575)
# Sequence (P42575 170-325 limits assumed): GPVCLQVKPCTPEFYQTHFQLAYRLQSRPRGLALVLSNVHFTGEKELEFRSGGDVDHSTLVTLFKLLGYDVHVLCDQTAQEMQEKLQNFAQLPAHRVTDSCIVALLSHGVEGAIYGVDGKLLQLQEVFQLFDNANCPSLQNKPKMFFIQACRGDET
# Sequence (P42575 334-452 limits assumed): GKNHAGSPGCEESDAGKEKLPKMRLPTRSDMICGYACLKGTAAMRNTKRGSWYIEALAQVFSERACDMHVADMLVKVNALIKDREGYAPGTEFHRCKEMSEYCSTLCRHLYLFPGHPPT
# protocol notes: Activation of procaspase 2 after 24 hrs
pEC50: −log10 of the molar value.

compound	tested on	pEC50
NCCCNCCCCNCCCN	Caspase-2 (Homo sapiens, UniProt P42575)	5.07
Cc1cc(NNC(=O)C(c2ccccc2)c2ccccc2)c2ccc(C)c(C)c2n1	Caspase-2 (Homo sapiens, UniProt P42575)	4.30
CCCCCCCCCCNC(=O)CCC	Caspase-2 (Homo sapiens, UniProt P42575)	4.18
CCCCCCCCCCCCCCCC[n+]1ccccc1	Caspase-2 (Homo sapiens, UniProt P42575)	4.68
CN(C)CCNC(=O)COc1ccc(C23CC4CC(CC(C4)C2)C3)cc1	Caspase-2 (Homo sapiens, UniProt P42575)	4.60
CC1CCCN(CC(O)COc2ccc(C34CC5CC(CC(C5)C3)C4)cc2)C1 (configuration not stated)	Caspase-2 (Homo sapiens, UniProt P42575)	4.60
NCCCNCCNCCCN	Caspase-2 (Homo sapiens, UniProt P42575)	4.30
